Reference for the values: patent EP0846683B1

# Measured Target: 3H-Prazosine binding
# Method Description: 3H-Prazosine binding (displacement, rat brain membranes)
# Assay Conditions: 0.2 nM 3H-Prazosine, 30 minutes at room temperature
pIC50: −log10 of the molar value. Counter-ions that a name gives are not always drawn.
Value Type: pIC50

Consider the reported pIC50 for these compounds:
• Cc1ccc(CC2(O)CCN(CC3Cc4ccc(O)cc4C3)CC2)cc1 (racemic) = 5.49
• Cc1ccc(CC2(O)CCN(CC3Cc4cc(O)ccc4N3)CC2)cc1 (racemic) = 5.18
• Oc1ccc2c(c1)CC(CN1CCC(O)(Cc3ccc(F)cc3)CC1)O2 (racemic) [Example 5, hydrochloride] = 5.40
• Cc1ccc(CC2(O)CCN(C[C@H]3CCc4cc(O)ccc4[C@@H]3O)CC2)cc1.O=C(O)/C=C/C(=O)O (racemic) [Example 27, fumarate salt] = 5.22
• Oc1ccc2c(c1)CC(CN1CCC(O)(Cc3ccccc3)CC1)O2 (racemic) [Example 4, hydrochloride] = 5.60

A = Oc1ccc2c(c1)CC[C@H](CN1CCC(O)(Cc3ccccc3)CC1)[C@H]2O (racemic)
B = Cc1ccc(CC2(O)CCN(CC3Cc4cc(NS(C)(=O)=O)ccc4O3)CC2)cc1 (racemic) [Example 23, hydrochloride]
Identify the entry with the smaller pIC50: A or B . Write down the label attached to your selection.
A

====

# Measured Target: NMDA receptor (Rattus norvegicus, UniProt P35439+Q00960)
# Construct: Membranes were prepared by homogenization of the whole brain minus cerebellum and medulla oblongata; from tissue; host or cells: rat whole brain minus cerebellum and medulla oblongata, membranes
# Sequence (Q00960 27-1482, other chains not shown): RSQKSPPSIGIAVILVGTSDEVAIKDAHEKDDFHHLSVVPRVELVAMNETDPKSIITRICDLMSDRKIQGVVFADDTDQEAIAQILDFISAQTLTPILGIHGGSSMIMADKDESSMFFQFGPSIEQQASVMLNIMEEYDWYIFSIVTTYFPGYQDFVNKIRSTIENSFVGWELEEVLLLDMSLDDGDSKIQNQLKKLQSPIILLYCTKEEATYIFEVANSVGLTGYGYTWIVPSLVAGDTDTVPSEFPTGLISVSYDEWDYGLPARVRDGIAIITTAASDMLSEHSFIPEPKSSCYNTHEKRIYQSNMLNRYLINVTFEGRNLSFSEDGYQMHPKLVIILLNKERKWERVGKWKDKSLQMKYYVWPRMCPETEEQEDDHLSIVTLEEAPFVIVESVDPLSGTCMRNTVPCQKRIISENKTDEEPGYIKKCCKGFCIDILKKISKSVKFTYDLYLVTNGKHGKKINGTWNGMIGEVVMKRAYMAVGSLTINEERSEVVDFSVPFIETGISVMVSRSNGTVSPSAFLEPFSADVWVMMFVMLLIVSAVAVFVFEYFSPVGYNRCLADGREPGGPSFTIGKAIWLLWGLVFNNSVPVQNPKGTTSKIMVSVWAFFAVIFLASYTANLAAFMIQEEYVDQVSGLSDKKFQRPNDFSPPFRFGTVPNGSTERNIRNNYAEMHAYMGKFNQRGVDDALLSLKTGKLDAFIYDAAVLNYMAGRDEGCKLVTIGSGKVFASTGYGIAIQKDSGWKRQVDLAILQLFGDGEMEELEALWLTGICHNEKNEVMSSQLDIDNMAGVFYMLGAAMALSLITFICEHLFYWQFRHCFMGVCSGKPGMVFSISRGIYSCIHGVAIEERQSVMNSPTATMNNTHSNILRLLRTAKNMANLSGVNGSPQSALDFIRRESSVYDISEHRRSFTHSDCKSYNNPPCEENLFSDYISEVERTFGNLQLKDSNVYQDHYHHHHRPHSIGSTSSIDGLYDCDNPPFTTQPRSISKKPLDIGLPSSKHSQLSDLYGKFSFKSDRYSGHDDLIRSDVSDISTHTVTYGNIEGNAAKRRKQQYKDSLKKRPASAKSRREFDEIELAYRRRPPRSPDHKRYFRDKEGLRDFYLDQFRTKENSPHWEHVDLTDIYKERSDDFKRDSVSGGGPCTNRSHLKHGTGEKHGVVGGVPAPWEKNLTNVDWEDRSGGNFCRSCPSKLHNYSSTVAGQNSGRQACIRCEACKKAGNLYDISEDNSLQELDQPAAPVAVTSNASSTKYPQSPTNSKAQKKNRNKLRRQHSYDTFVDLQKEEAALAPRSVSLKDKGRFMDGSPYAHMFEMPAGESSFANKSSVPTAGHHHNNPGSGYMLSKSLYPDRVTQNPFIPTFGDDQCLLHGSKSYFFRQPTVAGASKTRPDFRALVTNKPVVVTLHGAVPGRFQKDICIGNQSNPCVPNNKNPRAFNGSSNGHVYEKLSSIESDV
# Method Description: 3H-Ro 25-6981 binding (displacement, rat brain membranes)
# Assay Conditions: 5 nM 3H-Ro 25-6981, 2 hours at 4°C
pIC50: −log10 of the molar value. Where a name gives a salt, the structure may show the parent alone.
Value Type: pIC50

- Cc1ccc(CC2(O)CCN(CC3Cc4cc(NS(C)(=O)=O)ccc4O3)CC2)cc1 (racemic) [Example 23, hydrochloride]: 7.40
- Oc1ccc2c(c1)CC(CN1CCC(O)(Cc3ccccc3)CC1)O2 (racemic) [Example 4, hydrochloride]: 7.30
- Cc1ccc(CC2(O)CCN(CC3Cc4ccc(O)cc4C3)CC2)cc1 (racemic) [Example 19]: 7.26
- Cc1ccc(CC2(O)CCN(C[C@@H]3Cc4cc(O)ccc4O3)CC2)cc1.Cl [Example 13, hydrochloride]: 7.85

====

# Measured Target: NR1C + NR2A (Rattus norvegicus)
# Construct: expressed in transfected cells; host or cells: Xenopus laevis oocytes, nuclear injection of pBC/CMV expression plasmids
# Sequence (Q00959 23-1464, other chains not shown): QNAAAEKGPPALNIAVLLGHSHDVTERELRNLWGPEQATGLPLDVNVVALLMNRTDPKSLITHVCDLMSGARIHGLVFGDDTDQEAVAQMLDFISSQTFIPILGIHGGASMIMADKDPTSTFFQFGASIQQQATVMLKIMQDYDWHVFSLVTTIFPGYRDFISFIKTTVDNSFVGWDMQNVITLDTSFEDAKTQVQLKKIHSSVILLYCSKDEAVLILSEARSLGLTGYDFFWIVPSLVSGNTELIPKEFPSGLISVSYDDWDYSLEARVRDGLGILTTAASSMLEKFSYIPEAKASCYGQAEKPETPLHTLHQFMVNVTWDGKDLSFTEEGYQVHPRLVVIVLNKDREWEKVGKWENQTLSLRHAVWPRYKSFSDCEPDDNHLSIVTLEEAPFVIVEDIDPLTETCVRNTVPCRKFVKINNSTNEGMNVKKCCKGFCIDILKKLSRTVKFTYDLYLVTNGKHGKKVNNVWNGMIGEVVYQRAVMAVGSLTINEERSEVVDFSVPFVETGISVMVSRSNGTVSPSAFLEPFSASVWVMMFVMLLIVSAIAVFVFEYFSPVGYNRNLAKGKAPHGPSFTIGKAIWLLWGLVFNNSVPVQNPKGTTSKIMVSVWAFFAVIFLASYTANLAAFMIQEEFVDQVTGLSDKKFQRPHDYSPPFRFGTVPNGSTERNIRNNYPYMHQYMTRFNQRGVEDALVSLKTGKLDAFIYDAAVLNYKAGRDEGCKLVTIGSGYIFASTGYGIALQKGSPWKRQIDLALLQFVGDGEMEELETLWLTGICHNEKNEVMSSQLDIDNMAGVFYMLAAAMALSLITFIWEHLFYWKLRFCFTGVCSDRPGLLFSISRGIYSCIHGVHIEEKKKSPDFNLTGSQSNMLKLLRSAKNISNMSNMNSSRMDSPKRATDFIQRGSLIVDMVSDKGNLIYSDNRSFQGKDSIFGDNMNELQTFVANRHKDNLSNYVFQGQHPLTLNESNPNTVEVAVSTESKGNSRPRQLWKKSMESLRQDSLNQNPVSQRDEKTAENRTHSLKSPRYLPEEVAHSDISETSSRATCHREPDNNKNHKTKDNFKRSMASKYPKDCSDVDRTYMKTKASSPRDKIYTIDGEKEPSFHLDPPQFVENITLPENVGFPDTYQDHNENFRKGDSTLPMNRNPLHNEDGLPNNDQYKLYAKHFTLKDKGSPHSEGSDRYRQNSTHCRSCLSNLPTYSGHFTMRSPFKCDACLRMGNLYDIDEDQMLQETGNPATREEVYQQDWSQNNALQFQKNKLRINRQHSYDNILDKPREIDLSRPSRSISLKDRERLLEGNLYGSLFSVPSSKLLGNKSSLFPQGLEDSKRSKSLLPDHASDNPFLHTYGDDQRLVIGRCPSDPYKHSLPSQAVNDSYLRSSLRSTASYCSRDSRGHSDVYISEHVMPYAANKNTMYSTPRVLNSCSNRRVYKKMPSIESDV
# Method Description: Electrophysiology on recombinant NMDA receptors (voltage clamp, Xenopus laevis oocytes), NR1C + NR2A
# Assay type: cell-based
# Assay Conditions: 10 µM compound; oocytes clamped to -80 mV; 2.7 µM Glu plus 0.9 µM Gly; mean of four to six oocytes
Counter-ions that a name gives are not always drawn.
Value Type: Electrophysiology NR1C + NR2A % block by 10 µM (%)

Consider the reported Electrophysiology NR1C + NR2A % block by 10 µM for these compounds:
• CCc1ccc(CC2(O)CCN(CC3Cc4cc(O)ccc4O3)CC2)cc1.Cl (racemic) = 12
• Cl.Oc1ccc2c(c1)C[C@@H](CN1CCC(O)(Cc3ccc(Cl)cc3)CC1)O2 = 9
• Cc1ccc(CC2(O)CCN(C[C@@H]3Cc4cc(O)ccc4O3)CC2)cc1.Cl = 8

P = Cc1ccc(CC2(O)CCN(CC3Cc4cc(O)ccc4C3O)CC2)cc1 (centres unmarked) [Example 16, fumarate salt]
Q = Cc1ccc(CC2(O)CCN(C[C@H]3CCc4cc(O)ccc4[C@@H]3O)CC2)cc1.O=C(O)/C=C/C(=O)O (racemic)
Identify the entry with the smaller Electrophysiology NR1C + NR2A % block by 10 µM: P or Q . Write down the label attached to your selection.
P
